Let's look at some compounds and their measured IC50.
# Target Desc: 5-LO in intact RBL-1 cells (Rattus norvegicus, UniProt P12527)
# Construct: 5-LO and CO in intact RBL-1 cells; endogenous in cells
# Sequence (P12527 whole entry): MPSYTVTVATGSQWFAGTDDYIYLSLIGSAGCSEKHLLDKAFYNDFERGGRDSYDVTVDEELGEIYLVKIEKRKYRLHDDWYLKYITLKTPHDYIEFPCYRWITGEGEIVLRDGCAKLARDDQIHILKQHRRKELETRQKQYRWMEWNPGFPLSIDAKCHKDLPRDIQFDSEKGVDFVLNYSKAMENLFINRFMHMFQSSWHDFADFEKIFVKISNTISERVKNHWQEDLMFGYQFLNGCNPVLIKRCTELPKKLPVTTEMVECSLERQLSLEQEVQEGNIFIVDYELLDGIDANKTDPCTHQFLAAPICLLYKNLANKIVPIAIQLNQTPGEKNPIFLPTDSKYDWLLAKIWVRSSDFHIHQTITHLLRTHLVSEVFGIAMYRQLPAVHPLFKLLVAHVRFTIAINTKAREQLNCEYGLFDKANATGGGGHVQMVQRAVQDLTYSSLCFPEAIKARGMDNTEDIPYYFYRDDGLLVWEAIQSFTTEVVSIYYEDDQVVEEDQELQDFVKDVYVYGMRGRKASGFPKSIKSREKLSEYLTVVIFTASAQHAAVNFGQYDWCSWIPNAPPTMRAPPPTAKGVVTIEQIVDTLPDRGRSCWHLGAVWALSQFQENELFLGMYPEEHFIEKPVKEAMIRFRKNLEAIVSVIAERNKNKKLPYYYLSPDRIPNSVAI
# Protocol: Procedure III: inhibition of 5-LO in intact RBL-1 cells
Readout Label: IC50 (µM)

{"Chemical Structure": "COc1ccc(-n2nc(COC(=O)NO)cc2-c2ccc(Cl)cc2)cc1", "Target Desc": "5-LO in intact RBL-1 cells (Rattus norvegicus, UniProt P12527)", "Readout Label": "IC50", "Display Unit": "µM", "Numeric Result": 24.2}
{"Chemical Structure": "COc1ccc(-n2nc(CCCOC(=O)N(C)O)c(Br)c2-c2ccc(Cl)cc2)cc1", "Target Desc": "5-LO in intact RBL-1 cells (Rattus norvegicus, UniProt P12527)", "Readout Label": "IC50", "Display Unit": "µM", "Numeric Result": 2.35}
{"Chemical Structure": "COc1ccc(-n2nc(COC(=O)N(O)C(C)C)cc2-c2ccc(C)cc2)cc1", "Target Desc": "5-LO in intact RBL-1 cells (Rattus norvegicus, UniProt P12527)", "Readout Label": "IC50", "Display Unit": "µM", "Numeric Result": 3.8}
{"Chemical Structure": "COc1ccc(-n2nc(CCCOC(=O)NO)cc2-c2ccc(Cl)cc2)cc1", "Target Desc": "5-LO in intact RBL-1 cells (Rattus norvegicus, UniProt P12527)", "Readout Label": "IC50", "Display Unit": "µM", "Numeric Result": 30}
{"Chemical Structure": "COc1ccc(-n2nc(CCOC(=O)N(O)C(C)C)c(Br)c2-c2ccc(Cl)cc2)cc1", "Target Desc": "5-LO in intact RBL-1 cells (Rattus norvegicus, UniProt P12527)", "Readout Label": "IC50", "Display Unit": "µM", "Numeric Result": 1.6}
{"Chemical Structure": "COc1ccc(-n2nc(COC(=O)N(C)O)c(Cl)c2-c2ccc(Cl)cc2)cc1", "Target Desc": "5-LO in intact RBL-1 cells (Rattus norvegicus, UniProt P12527)", "Readout Label": "IC50", "Display Unit": "µM", "Numeric Result": 2}
{"Chemical Structure": "COc1ccc(-n2nc(CCOC(=O)N(C)O)c(Cl)c2-c2ccc(Cl)cc2)cc1", "Target Desc": "5-LO in intact RBL-1 cells (Rattus norvegicus, UniProt P12527)", "Readout Label": "IC50", "Display Unit": "µM", "Numeric Result": 4.2}
{"Chemical Structure": "COc1ccc(-n2nc(COC(=O)N(O)C(C)C)c(Br)c2-c2ccc(Cl)cc2)cc1", "Target Desc": "5-LO in intact RBL-1 cells (Rattus norvegicus, UniProt P12527)", "Readout Label": "IC50", "Display Unit": "µM", "Numeric Result": 3.6}
{"Chemical Structure": "COc1ccc(-n2nc(CCOC(=O)N(C)O)c(Br)c2-c2ccc(Cl)cc2)cc1", "Target Desc": "5-LO in intact RBL-1 cells (Rattus norvegicus, UniProt P12527)", "Readout Label": "IC50", "Display Unit": "µM", "Numeric Result": 1.1}

====

# Target Desc: RBL-1 Cell Cyclooxygenase (Rattus norvegicus, UniProt Q63921)
# Construct: the supernatant was saved as the source of enzymes; endogenous in cells; host or cells: RBL-1 (rat basophilic leukemia cells), 10,000×g supernatant of homogenate
# Sequence (Q63921 27-602): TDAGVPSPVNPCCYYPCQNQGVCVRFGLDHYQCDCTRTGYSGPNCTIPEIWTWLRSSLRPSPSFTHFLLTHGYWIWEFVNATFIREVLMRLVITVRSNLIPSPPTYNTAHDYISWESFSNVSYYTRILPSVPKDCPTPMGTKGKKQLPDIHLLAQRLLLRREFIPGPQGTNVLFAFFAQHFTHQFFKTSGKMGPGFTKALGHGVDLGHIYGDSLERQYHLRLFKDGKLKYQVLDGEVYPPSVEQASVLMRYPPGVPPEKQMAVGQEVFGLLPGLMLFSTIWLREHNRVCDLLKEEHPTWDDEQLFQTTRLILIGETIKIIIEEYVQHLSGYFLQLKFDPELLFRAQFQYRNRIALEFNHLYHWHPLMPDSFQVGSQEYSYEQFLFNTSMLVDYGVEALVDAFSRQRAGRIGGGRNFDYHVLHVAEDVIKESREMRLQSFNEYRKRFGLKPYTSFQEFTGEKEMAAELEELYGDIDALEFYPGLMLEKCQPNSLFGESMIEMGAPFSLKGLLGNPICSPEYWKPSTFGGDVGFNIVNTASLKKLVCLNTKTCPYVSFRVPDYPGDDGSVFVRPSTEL
# Protocol: Procedure II: cyclooxygenase inhibition in disrupted RBL-1 cells (supernatant as enzyme source)
# Type: biochemical
The threshold is inclusive: % INHIBITION CO (Procedure II) of exactly 40% counts as criterion met; values below receive criterion not met.

{"Chemical Structure": "COc1ccc(-n2nc(CCCOC(=O)N(O)C(C)C)c(Cl)c2-c2ccc(Cl)cc2)cc1", "Discrete Label": "criterion met"}
{"Chemical Structure": "COc1ccc(-n2nc(CCOC(=O)N(C)O)cc2-c2ccc(C)cc2)cc1", "Discrete Label": "criterion met"}
{"Chemical Structure": "COc1ccc(-n2nc(COC(=O)N(O)C(C)C)c(Cl)c2-c2ccc(Cl)cc2)cc1", "Discrete Label": "criterion not met"}
{"Chemical Structure": "COc1ccc(-n2nc(CCOC(=O)N(O)C(C)C)c(Cl)c2-c2ccc(Cl)cc2)cc1", "Discrete Label": "criterion not met"}
